- Tested on: SF-268
- test: NCI tumour cell line growth inhibition, 48 h
Calls of active or inactive are those of the source. Cut-off read from the data, not from the text of the source: active = GI50 up to about 1.1 µM and inactive = higher.
propertyName: GI50

// known answers, use as guide
1. O=C(CCN1CCCCC1)C(=Cc1ccccc1)C(=O)CCN1CCCCC1 ... > 78.9 µM (inactive)
2. CCCCCCCCCCCCC(Br)C(=O)SCCNC(=O)CCNC(=O)[C@@H](O)C(C)(C)COP(=O)(O)OP(=O)(O)OCC1OC(n2cnc3c(N)ncnc32)C(O)C1OP(=O)(O)O (some centres undefined) ... > 56.5 µM (inactive)
3. Cn1ncc2c(Nc3ccc(Cl)cc3)c3ccccc3nc21 ... 20.3 µM (inactive)

Here is another compound to look at.
Query block: Find the recorded GI50 belonging to O=C(O)/C=C/C(=O)N1C/C(=C\c2ccccc2)C(=O)/C(=C/c2ccccc2)C1 and report it.
Result block: 6.35 µM (inactive)

###

I'd appreciate it if you could supply GI50 values for the items below.
- Tested on: UACC-257
- test: NCI tumour cell line growth inhibition, 48 h
Calls of active or inactive are those of the source. No stated cut-off is given here; in the data, active = GI50 up to about 1.1 µM and inactive = higher.

// for each compound below, give its GI50
1. COc1ccc(Nc2nc3cc(N)cc(N)c3nc2-c2ccccc2)cc1
2. C=C(C)[C@H]1CC(=O)[C@@]2(C)C[C@H]3O[C@]3(C)CC/C=C(\C)CC[C@H]12
3. N#Cc1cccc(N2C(=O)C3C4C=CC(C3C2=O)C2C(=O)N(c3cccc(C#N)c3)C(=O)C42)c1 (centres undefined)
4. O=C(Cc1nc2ccccc2s1)NC12CC3CC(CC(C3)C1)C2
5. CC(C)(C)/N=C\N(C=C(c1ccccc1)c1ccccc1)C1CCCCC1
6. CSC[S+]([O-])C[C@H](CO)NC(=O)/C=C/c1c(C)[nH]c(=O)[nH]c1=O (some centres undefined)
7. NC1(CCCCCCCCCCC(=O)O)CNCCNCCNCCNC1
8. CCOC(=O)C(Cc1ccc(N(CCCl)CCCl)cc1)NC(=O)CCCN1C(=O)CN=C(c2ccccc2)c2cc(Cl)ccc21 (centres undefined)

Result block:
["14.4 µM (inactive)", "19.4 µM (inactive)", "> 63.1 µM (inactive)", "> 100 µM (inactive)", "33.3 µM (inactive)", "1.38 µM (inactive)", "> 100 µM (inactive)", "3.6 µM (inactive)"]

Query block: Find the recorded GI50 belonging to Cc1ccc(C)c(NC(=O)CC/C(=N\NC(=O)c2c(O)ccc3ccccc23)C(C)C(=O)c2ccc(O)cc2)c1 (centres undefined) and report it.
Result block: 31.9 µM (inactive)

###

- Tested on: SF-295
- test: NCI tumour cell line growth inhibition, 48 h
The source made the active and inactive calls. No stated cut-off is given here; in the data, active = GI50 up to about 1.1 µM and inactive = higher.
Can you answer with just one of these options? t (active), f (inactive)

Past entries and their recorded results:
1. CCCCNc1nc(SC)nc2[nH]cnc12 ... f
2. CN(C)c1ccc(/C=C(/C(=O)O)c2csc(-c3nc(/C(=C\c4ccc(N(C)C)cc4)C(=O)O)cs3)n2)cc1 ... f
3. C/C1=C\[C@@H](O)C(=O)/C=C/C=C\c2csc(n2)[C@@H](C)NC(=O)C[C@@]2(CC1)[S+]([O-])SC(=O)[C@]2(C)O (stereo partly specified) ... t
4. COc1cc2[nH]c(=O)[nH]c2c2c(C)c[nH]c12 ... f
5. O=C(O)CCCN1CCCCC1 ... f
6. N#Cc1c(N)c2c(c(-c3ccccc3)c1-c1ccccc1)C(=O)N(O)C2=O ... f
7. O=C1CSC2(CC(/C=C/c3cccc(Br)c3)=NN2c2cccc(S(=O)(=O)O)c2)N1c1nc2ccccc2s1 (stereo unspecified) ... f
8. CC(N)Cc1ccc(Cl)cc1 (stereo unspecified) ... f

Query block: Please indicate how the test categorized NS(=O)(=O)c1cc2c(cc1Cl)NCNS2(=O)=O [HYDROCHLOROTHIAZIDE] .
Result block: f

Query block: Please indicate how the test categorized OCC1OC2c3ccccc3COC2C1OCc1ccccc1 (stereo unspecified) .
Result block: f

Query block: Please indicate how the test categorized CCN(CC)C(=S)SC1CCOP(=O)(N(CCCl)CCCl)N1C (stereo unspecified) .
Result block: f

Query block: Please indicate how the test categorized CNS(=O)(=O)NN(C)S(=O)(=O)c1ccccc1 .
Result block: f

Query block: Please indicate how the test categorized [O-][S+]1c2ccccc2N=C(c2ccc3ccccc3c2)CC1C1=CC=CCC1 (stereo unspecified) .
Result block: f

Query block: Please indicate how the test categorized CC1=C(C(=O)CC(=O)C(=O)Nc2ccc(Cl)cc2C)Sc2ccccc2N1 .
Result block: f
